Catalogue of molecules with associated MIC, column D
Tested on: Staph aureus 2811
MEASUREMENT_NOTES: MIC, microtiter broth dilution (CLSI M7-A7), Assay 1, Table 12 column D, no serum
Type: cell-based, Staphylococcus aureus
TEST_CONDITIONS: Staph aureus 2811, Assay 1, no serum

MOLECULE | TARGET_SYSTEM | RESULT
COc1ccc2ncc(Cl)c(CCCC3(C(=O)O)CCN(C4CN(c5ccccn5)C4)CC3)c2c1 | Staph aureus 2811 | 2 µg/mL
COc1ccc2nccc(C(CC[C@@H]3CCN(C4CC(c5ccccc5)C4)C[C@@H]3C(=O)O)N3CCOCC3)c2c1 (some centres unmarked) | Staph aureus 2811 | 4 µg/mL
COc1ccc2ncc(F)c(CCCC3(C(=O)O)CCN(C4CC(c5c(F)cccc5F)C4)C3)c2c1 (centres unmarked) [Example 180] | Staph aureus 2811 | <0.0625 µg/mL

Qu. Output measured MIC, column D for this item: COc1ccc2ncc(F)c(C(O)CC[C@@H]3CCN(C4CC(c5cc(F)ccc5F)C4)C[C@@H]3C(=O)O)c2n1 (some centres unmarked) [Example 218]
Ans. <0.0625 µg/mL

Qu. Output measured MIC, column D for this item: COc1ccc2ncc(Cl)c(C(O)CC[C@@H]3CCN(C4CC(c5cc(F)ccc5F)C4)C[C@@H]3C(=O)O)c2c1 (some centres unmarked) [Example 210]
Ans. <0.0625 µg/mL

Qu. Output measured MIC, column D for this item: COc1ccc2nccc(C(O)CC[C@@H]3CCN(C4CC(O)(c5ccccc5)C4)C[C@@H]3C(=O)O)c2c1 (some centres unmarked) [Example 94]
Ans. >64 µg/mL

----------
Tested on: Staph aureus 1146
MEASUREMENT_NOTES: MIC, microtiter broth dilution (CLSI M7-A7), Assay 1, Table 12 column B, no serum
Assay type: cell-based, Staphylococcus aureus
TEST_CONDITIONS: Staphylococcus aureus, 1146, Staph aureus 1146, Assay 1, no serum
Description: The assays described herein include a panel of bacterial isolates of Staphylococcus aureus. […] The MIC value represents the lowest concentration of drug measured which prevented macroscopically visible growth under the conditions and specific doses tested. […]
MEASURED_METRIC: MIC (mg/L)
Please state the figure in mg/L; there is no need to write the unit.

MOLECULE | MEASURED_METRIC | QUANTITY_UNIT | RECORDED_NUMBER
COc1ccc2nccc([C@@H](O)CC[C@@H]3CCN(C4CC(c5ccc(Br)cc5F)C4)C[C@@H]3C(=O)O)c2c1 (stereo partly drawn) | MIC | mg/L | 1
COc1ccc2nccc(C(O)CC[C@@H]3CCN(C4CC(Cc5cccc(F)c5)C4)C[C@@H]3C(=O)O)c2c1 (stereo partly drawn) | MIC | mg/L | 1

Qu. Output measured MIC for this item: COc1ccc2nccc([C@H](O)CC[C@@H]3CCN(C4CC(C5CCCC5)C4)C[C@@H]3C(=O)O)c2c1 (stereo partly drawn)
Ans. 1

----------
Tested on: Staph aureus 1146
MEASUREMENT_NOTES: MIC, microtiter broth dilution (CLSI M7-A7), Assay 1, Table 12 column B, no serum
Type: cell-based, Staphylococcus aureus
TEST_CONDITIONS: Staphylococcus aureus, 1146, Staph aureus 1146, Assay 1, no serum
MEASURED_METRIC: MIC

Use the examples below as a reference point.
COMPOUND | TARGET_SYSTEM | MIC
COc1ccc2ncc(F)c(C(O)CC[C@@H]3CCN(C4CC(c5c(F)cccc5F)C4)C[C@@H]3C(=O)O)c2c1 (single isomer, unassigned) [Example 18] | Staph aureus 1146 | ≤ 0.0625 µg/mL
COc1ccc2nccc(C(O)CC[C@@H]3CCN(C4CC(c5cccc(F)c5F)C4)C[C@@H]3C(=O)O)c2c1 (stereo partly shown) [Example 36] | Staph aureus 1146 | ≤ 0.0625 µg/mL
COc1ccc2nccc([C@@H](O)CC[C@@H]3CCN(C4CC(c5ccc(F)c(F)c5F)C4)C[C@@H]3C(=O)O)c2c1 (stereo partly shown) [Example 197] | Staph aureus 1146 | < 0.0625 µg/mL
COc1ccc2nccc(C(O)CC[C@@H]3CCN(C4CN(C5CCCC5)C4)C[C@@H]3C(=O)O)c2c1 (stereo partly shown) [Example 132] | Staph aureus 1146 | > 64 µg/mL
COc1ccc2nccc([C@@H](O)CC[C@@H]3CCN(C4CC(c5ccc(-c6ccccc6)cc5)C4)C[C@@H]3C(=O)O)c2c1 (stereo partly shown) [Example 41] | Staph aureus 1146 | > 64 µg/mL
COc1ccc2ncc(F)c(CCCC3(C(=O)O)CCN(C4CC(c5ccccc5)C4)CC3)c2c1 (stereo not shown) [Example 23] | Staph aureus 1146 | ≤ 0.0625 µg/mL

--- query ---
Qu. Output measured MIC for this item: COc1ccc2nccc([C@@H](O)CC[C@@H]3CCN(C4CC(c5cc(F)c(F)cc5F)C4)C[C@@H]3C(=O)O)c2c1 (stereo partly shown) [Example 191]
Ans. < 0.0625 µg/mL

// provenance: patent US20080280879A1
